Target: Prostaglandin D2 receptor 2 (Homo sapiens, UniProt Q9Y5Y4)
Test: Antagonist activity at human CRTH2 receptor expressed in HEK385-7 cells assessed as inhibition of PGD2-mediated beta-arrestin translocation preincubated 5 mins prior to PGD2 challenge measured after 5 mins by BRET assay
Type: functional, cell-based
pIC50: −log10 of the molar value.
parameter measured: pIC50

[P] N#Cc1ccc(N(c2ccccc2)c2nc(-c3ccc(F)cc3)c(CC(=O)O)s2)cc1
[Q] O=C(O)CCc1sc(C(c2ccc(F)cc2)c2ccc(F)cc2)nc1-c1cccc(F)c1
[R] O=C(O)COc1sc(C(c2ccc(F)cc2)c2ccc(F)cc2)nc1-c1cccc(F)c1
QUERY: Give the order of the entries above, sorted from least to greatest pIC50. Kindly provide the labels arranged according to the requested ordering.
RESULT: Q, P, R

====

Target: Chemoattractant receptor-homologous molecule expressed on Th2 cells (Cavia porcellus, UniProt Q56D28)
Sequence (Q56D28 whole entry): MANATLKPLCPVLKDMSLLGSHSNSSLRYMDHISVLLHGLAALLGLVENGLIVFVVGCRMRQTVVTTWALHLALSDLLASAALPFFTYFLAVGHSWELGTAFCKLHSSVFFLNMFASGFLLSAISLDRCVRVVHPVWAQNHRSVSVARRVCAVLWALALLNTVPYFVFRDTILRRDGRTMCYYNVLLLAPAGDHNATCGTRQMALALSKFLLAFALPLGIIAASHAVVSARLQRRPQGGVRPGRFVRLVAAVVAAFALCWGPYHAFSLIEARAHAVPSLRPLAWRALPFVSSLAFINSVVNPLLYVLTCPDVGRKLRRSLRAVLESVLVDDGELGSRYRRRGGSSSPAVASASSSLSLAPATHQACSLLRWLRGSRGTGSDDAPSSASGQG
parameter measured: IC50 (nM)
# unit: nM | format: bare number

QUERY: Read the entry "O=C(O)Cc1cnc(C(c2ccc(F)cc2)c2ccc(F)cc2)nc1-c1cccc(F)c1" and write its reported IC50.
RESULT: 29

====

Assay: Inhibition of guinea pig DP receptor
Set-up: species or system Cavia porcellus
parameter measured: IC50

QUERY: Read the entry "O=C(O)Cc1cnc(C(c2ccc(F)cc2)c2ccc(F)cc2)nc1-c1cccc(F)c1" and write its reported IC50.
RESULT: > 100 µM

====

Biological target: Prostaglandin D2 receptor 2 (Homo sapiens)
Assay: Displacement of [3H]PGD2 from human CRTH2 receptor expressed in HEK385-7 cells
Format: cell-based
pIC50: −log10 of the molar value.
parameter measured: pIC50

>>> print(df.to_string())
                               input_smiles  meas_value
0  N#Cc1ccc(N(c2ccccc2)c2nc(-c3ccc(F)cc3)c(CC(=O)O)s2)cc1        7.08

[P] O=C(O)COc1sc(C(c2ccc(F)cc2)c2ccc(F)cc2)nc1-c1cccc(F)c1
[Q] O=C(O)Cc1sc(N(c2ccccc2)c2ccccc2)nc1-c1cccc(F)c1
[R] COc1ccc(N(c2ccc(OC)cc2)c2ncc(CC(=O)O)c(-c3cccc(F)c3)n2)cc1
[S] O=C(O)Cc1sc(N(c2ccccc2)c2cccnc2)nc1-c1ccc(F)cc1
[T] O=C(O)Cc1[nH]c(C(c2ccc(F)cc2)c2ccc(F)cc2)nc1-c1ccc(F)cc1
QUERY: Thanks in advance: please rank these 5 entries by pIC50, highest to lowest. Kindly provide the labels arranged according to the requested ordering.
RESULT: Q, S, P, R, T

====

Biological target: Prostaglandin D2 receptor 2 (Homo sapiens, UniProt Q9Y5Y4)
Sequence (Q9Y5Y4 whole entry): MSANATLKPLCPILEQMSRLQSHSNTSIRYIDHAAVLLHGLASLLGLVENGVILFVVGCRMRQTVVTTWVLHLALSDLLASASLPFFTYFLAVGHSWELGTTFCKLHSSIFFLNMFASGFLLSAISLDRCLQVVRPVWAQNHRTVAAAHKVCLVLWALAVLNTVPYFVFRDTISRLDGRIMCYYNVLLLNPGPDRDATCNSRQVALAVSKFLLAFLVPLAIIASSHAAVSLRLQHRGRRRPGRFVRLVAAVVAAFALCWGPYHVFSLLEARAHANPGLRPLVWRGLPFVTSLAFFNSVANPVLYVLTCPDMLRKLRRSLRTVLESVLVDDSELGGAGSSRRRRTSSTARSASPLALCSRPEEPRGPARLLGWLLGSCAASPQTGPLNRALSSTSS
Assay: Antagonist activity at human CRTH2 receptor expressed in HEK385-7 cells assessed as inhibition of PGD2-mediated beta-arrestin translocation preincubated 5 mins prior to PGD2 challenge measured after 5 mins by BRET assay
Assay type: functional, cell-based
parameter measured: IC50 (nM)

>>> df
                               input_smiles  unit_symbol  meas_value
0  COc1ccc(N(c2ccc(OC)cc2)c2nc(-c3cccc(F)c3)c(CC(=O)O)s2)cc1           nM         260
1  O=C(O)Cc1sc(N(c2ccccc2)c2ccccc2)nc1-c1ccc(F)cc1           nM          98
2  CS(=O)(=O)c1ccc(N(c2ccccc2)c2nc(-c3ccc(F)cc3)c(CC(=O)O)s2)cc1           nM        2000
3  O=C(O)Cc1sc(N(c2ccccc2)c2cccnc2)nc1-c1ccc(F)cc1           nM        1500
4  O=C(O)Cc1sc(N(c2ccccc2)c2ccccc2)nc1-c1ccc(Cl)cc1           nM          72

[a] O=C(O)Cc1sc(N(c2ccc(F)cc2)c2ccc(F)cc2)nc1-c1ccc(F)cc1
[b] O=C(O)Cc1cnc(C(c2ccc(F)cc2)c2ccc(F)cc2)nc1-c1cccc(F)c1
QUERY: Of the pair a and b , name the member with the lesser recorded IC50. Label of pick, please.
RESULT: b

====

Target: Thromboxane A2 receptor (Homo sapiens)
Sequence (P21731 whole entry): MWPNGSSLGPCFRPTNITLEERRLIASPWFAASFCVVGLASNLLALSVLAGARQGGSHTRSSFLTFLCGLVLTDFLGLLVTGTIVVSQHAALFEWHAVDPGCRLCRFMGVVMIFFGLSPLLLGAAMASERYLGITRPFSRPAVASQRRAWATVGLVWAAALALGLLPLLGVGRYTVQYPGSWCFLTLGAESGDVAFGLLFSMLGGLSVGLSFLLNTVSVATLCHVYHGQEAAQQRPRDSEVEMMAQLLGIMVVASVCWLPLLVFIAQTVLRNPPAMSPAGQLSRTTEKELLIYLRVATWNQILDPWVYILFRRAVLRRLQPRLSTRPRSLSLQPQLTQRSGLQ
parameter measured: pIC50
The quantity pIC50 is defined as the negative base-10 logarithm of the molar concentration.

QUERY: Read the entry "O=C(O)Cc1cnc(C(c2ccc(F)cc2)c2ccc(F)cc2)nc1-c1cccc(F)c1" and write its reported pIC50.
RESULT: 4.51

====

Target: Prostaglandin D2 receptor 2 (Mus musculus, UniProt Q9Z2J6)
Sequence (Q9Z2J6 whole entry): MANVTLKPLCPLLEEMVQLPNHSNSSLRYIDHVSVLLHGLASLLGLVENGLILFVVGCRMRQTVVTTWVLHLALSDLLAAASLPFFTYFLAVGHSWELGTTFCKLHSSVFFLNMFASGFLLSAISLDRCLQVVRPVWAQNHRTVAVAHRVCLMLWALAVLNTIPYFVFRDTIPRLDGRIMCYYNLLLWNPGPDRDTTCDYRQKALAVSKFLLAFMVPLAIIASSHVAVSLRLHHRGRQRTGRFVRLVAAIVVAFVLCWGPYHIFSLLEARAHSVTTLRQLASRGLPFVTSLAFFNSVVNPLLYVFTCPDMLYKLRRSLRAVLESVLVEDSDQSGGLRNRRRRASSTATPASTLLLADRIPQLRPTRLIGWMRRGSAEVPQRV
Experiment: Inhibition of mouse CRTH2 receptor
parameter measured: pIC50
The quantity pIC50 is defined as the negative base-10 logarithm of the molar concentration.

QUERY: Read the entry "O=C(O)Cc1cnc(C(c2ccc(F)cc2)c2ccc(F)cc2)nc1-c1cccc(F)c1" and write its reported pIC50.
RESULT: 8.47

====

Molecular target: Prostaglandin D2 receptor 2 (Homo sapiens) (UniProt Q9Y5Y4)
Experiment: Antagonist activity at human CRTH2 receptor expressed in HEK385-7 cells assessed as inhibition of PGD2-mediated beta-arrestin translocation preincubated 5 mins prior to PGD2 challenge measured after 5 mins by BRET assay relative to control
Type: functional, cell-based
parameter measured: Efficacy

>>> df
                               input_smiles                               system_name  meas_value
0  O=C(O)Cc1cnc(C(c2ccc(F)cc2)c2ccc(F)cc2)nc1-c1cccc(F)c1  Prostaglandin D2 receptor 2 (Homo sapiens) (UniProt Q9Y5Y4)       > 80%
1  CS(=O)(=O)c1ccc(N(c2ccccc2)c2nc(-c3ccc(F)cc3)c(CC(=O)O)s2)cc1  Prostaglandin D2 receptor 2 (Homo sapiens) (UniProt Q9Y5Y4)       > 30%
2  COc1ccc(N(c2ccc(OC)cc2)c2nc(-c3cccc(F)c3)c(CC(=O)O)s2)cc1  Prostaglandin D2 receptor 2 (Homo sapiens) (UniProt Q9Y5Y4)       > 80%
3  O=C(O)Cc1sc(N(c2ccccc2)c2cccnc2)nc1-c1ccc(F)cc1  Prostaglandin D2 receptor 2 (Homo sapiens) (UniProt Q9Y5Y4)       > 30%
4  O=C(O)Cc1sc(N(c2ccccc2)c2ccccc2)nc1-c1ccc(Cl)cc1  Prostaglandin D2 receptor 2 (Homo sapiens) (UniProt Q9Y5Y4)       > 80%
5  O=C(O)Cc1sc(N(c2ccccc2)c2ccccc2)nc1-c1ccc(F)cc1  Prostaglandin D2 receptor 2 (Homo sapiens) (UniProt Q9Y5Y4)       > 80%

// moving on: another record for Efficacy
QUERY: Read the entry "O=C(O)CCc1cnc(C(c2ccc(F)cc2)c2ccc(F)cc2)nc1-c1cccc(F)c1" and write its reported Efficacy.
RESULT: > 80%

Origin of the recorded values: ChEMBL document CHEMBL1154943
